- Tested on: 349418-098-R-PDC complex spheroid viability
- assay: Anticancer human tumor 349418-098-R-PDC patient-derived lung adenocarcinoma cell line growth inhibition
- testParameters: second compound 0.1 µM; first compound 0.00949 µM; stronger effect = lower value
reportedMetric: viability, T/C (%)
Give just the numeric value; % need not be written.

Per the record, Nc1ccccc1NC(=O)c1ccc(CNC(=O)OCc2cccnc2)cc1 + NC1CCC(NC2CC2c2ccccc2)CC1 has viability, T/C of 106

Given item Nc1ccn(C2OC(CO)C(O)C2(F)F)c(=O)n1 (configuration not stated) + NC1CCC(NC2CC2c2ccccc2)CC1 , the value recorded as its viability, T/C is 4.21

Value of measured viability, T/C for the entry Nc1ncn(C2CC(O)C(CO)S2)c(=O)n1 (configuration not stated) + NC1CC1c1ccc(-c2cccc(O)c2)cc1 : 87.1

Just so you know, measured viability, T/C for COc1cc(C2c3cc4c(cc3C(OC3OC5COC(C)OC5C(O)C3O)C3COC(=O)C23)OCO4)cc(OC)c1O (configuration not stated) + NC1CC1c1ccc(-c2cccc(O)c2)cc1 came out at 108

The compound identified as NS(=O)(=O)OCC1CC(n2ccc3c(NC4CCc5ccccc54)ncnc32)CC1O (configuration not stated) + NC1CCC(NC2CC2c2ccccc2)CC1 registered its viability, T/C at 99.3

Memo: O=C(C=Cc1cccc(S(=O)(=O)Nc2ccccc2)c1)NO + NC1CC1c1ccc(-c2cccc(O)c2)cc1 , reported viability, T/C: 76

Measured viability, T/C of CCc1c2c(nc3ccc(O)cc13)-c1cc3c(c(=O)n1C2)COC(=O)[C@]3(O)CC + NC1CC1c1ccc(-c2cccc(O)c2)cc1 : 1.32

====

- System: 349418-098-R-PDC complex spheroid viability
- assay: Anticancer human tumor 349418-098-R-PDC cell line growth inhibition;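 note: spheroids exposed to agents for seven days before readout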;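 for viability, T/C: 100% = DMSO vehicle control wells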
- testParameters: second compound 3.16 µM; first compound 10 µM; stronger effect = lower value
reportedMetric: viability, T/C (%)
Report the value in % with no unit label.

Notebook: COc1ccc([C@@H](O)c2cc(-c3ncnc4cc(N5CCOCC5)ccc34)c(F)cc2Cl)nn1 + NC1CC1c1ccc(-c2cccc(O)c2)cc1 , viability, T/C read as 4.07

Consider O=C(c1cc(Cc2n[nH]c(=O)c3ccccc23)ccc1F)N1CCN(C(=O)C2CC2)CC1 + NC1CC1c1ccc(-c2cccc(O)c2)cc1 . Its measured viability, T/C is 52.3

For CC1(C)CCC(CN2CCN(c3ccc(C(=O)NS(=O)(=O)c4ccc(NCC5CCOCC5)c([N+](=O)[O-])c4)c(Oc4cnc5[nH]ccc5c4)c3)CC2)=C(c2ccc(Cl)cc2)C1 + NC1CCC(NC2CC2c2ccccc2)CC1 the compound record lists viability, T/C as 12

What the record says about CC(C)c1c(-c2ccccc2)nc2c(C#N)c[nH]n2c1=O + NC1CC1c1ccc(-c2cccc(O)c2)cc1 : viability, T/C is 91.2

====

- Test system: 349418-098-R-PDC complex spheroid viability
- assay: Anticancer human tumor 349418-098-R-PDC cell line growth inhibition;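 note: spheroids exposed to agents for seven days before readout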
- testParameters: curve of first compound; second compound 1 µM
reportedMetric: pIC50
pIC50 is a log-scale quantity: -log10 of the concentration expressed in molar.

For O=C(c1cc(Cc2n[nH]c(=O)c3ccccc23)ccc1F)N1CCN(C(=O)C2CC2)CC1 + NC1CC1c1ccc(-c2cccc(O)c2)cc1 the compound record lists pIC50 as 5.09

Sample CC1COCCN1c1cc(C2(S(C)(=N)=O)CC2)nc(-c2ccnc3[nH]ccc23)n1 (configuration not stated) + NC1CC1c1ccc(-c2cccc(O)c2)cc1 ; pIC50 observed: 6.03

// pIC50 lookup, compound = Nc1ccccc1NC(=O)c1ccc(CNC(=O)OCc2cccnc2)cc1 + NC1CCC(NC2CC2c2ccccc2)CC1 , result: 6.65

Lab note: measured pIC50 of NS(=O)(=O)OCC1CC(n2ccc3c(NC4CCc5ccccc54)ncnc32)CC1O (configuration not stated) + NC1CC1c1ccc(-c2cccc(O)c2)cc1 was 7.22

====

- Test system: 349418-098-R-PDC complex spheroid viability
- assay: Anticancer human tumor 349418-098-R-PDC cell line growth inhibition;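 note: spheroids exposed to agents for seven days before readout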;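 for viability, T/C: 100% = DMSO vehicle control wells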
- testParameters: second compound 10 µM; first compound 0.00316 µM; stronger effect = lower value
Give viability, T/C for every item shown.
Numeric answer only, unit % assumed.

# viability, T/C (molecule: Cn1ncnc1C1c2n[nH]c(=O)c3cc(F)cc(c23)NC1c1ccc(F)cc1 (centres undefined) + NC1CCC(NC2CC2c2ccccc2)CC1 ) is 94.6

Short answer for Cn1ncnc1C1c2n[nH]c(=O)c3cc(F)cc(c23)NC1c1ccc(F)cc1 (centres undefined) + NC1CC1c1ccc(-c2cccc(O)c2)cc1 : viability, T/C was 98.9

viability, T/C reported for this molecule CC[C@@]1(O)C(=O)OCc2c1cc1n(c2=O)Cc2cc3c(CN(C)C)c(O)ccc3nc2-1 + NC1CC1c1ccc(-c2cccc(O)c2)cc1 : 57.8

Record COc1cc(Nc2ncc3c(n2)-c2ccc(Cl)cc2C(c2c(F)cccc2OC)=NC3)ccc1C(=O)O + NC1CC1c1ccc(-c2cccc(O)c2)cc1 . Reported viability, T/C: 62.1

====

- Test system: 349418-098-R-PDC complex spheroid viability
- assay: Anticancer human tumor 349418-098-R-PDC cell line growth inhibition; active means viability on the fitted dose curve at most 10% of control; inactive means the rest;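 note: spheroids exposed to agents for seven days before readout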
- testParameters: second compound 10 µM; first compound 0.00949 µM
A correct response names exactly one class from YES (active), NO (inactive)

Request: What classification did CCc1c2c(nc3ccc(O)cc13)-c1cc3c(c(=O)n1C2)COC(=O)[C@]3(O)CC + NC1CCC(NC2CC2c2ccccc2)CC1 end up with in this test?
Response: YES

Request: Can you look up the reported call for COc1cc(C2c3cc4c(cc3C(OC3OC5COC(C)OC5C(O)C3O)C3COC(=O)C23)OCO4)cc(OC)c1O (stereo unspecified) + NC1CC1c1ccc(-c2cccc(O)c2)cc1 for me?
Response: NO

Request: Test call for this compound, please: CCc1c2c(nc3ccc(O)cc13)-c1cc3c(c(=O)n1C2)COC(=O)[C@]3(O)CC + NC1CC1c1ccc(-c2cccc(O)c2)cc1
Response: YES

Request: Returns: the outcome recorded for Nc1ncn(C2CC(O)C(CO)S2)c(=O)n1 (stereo unspecified) + NC1CC1c1ccc(-c2cccc(O)c2)cc1 in this assay.
Response: NO

Request: Please state the recorded outcome for this compound: Nc1ccn(C2OC(CO)C(O)C2(F)F)c(=O)n1 (stereo unspecified) + NC1CCC(NC2CC2c2ccccc2)CC1
Response: YES

Request: Outcome logged for CCN(c1cc(-c2ccc(CN3CCOCC3)cc2)cc(C(=O)NCc2c(C)cc(C)[nH]c2=O)c1C)C1CCOCC1 + NC1CC1c1ccc(-c2cccc(O)c2)cc1 in this assay:
Response: NO

Request: Called result for Nc1ccccc1NC(=O)c1ccc(CNC(=O)OCc2cccnc2)cc1 + NC1CCC(NC2CC2c2ccccc2)CC1
Response: NO

Request: Which outcome did this test record for the compound Nc1ccccc1NC(=O)c1ccc(CNC(=O)OCc2cccnc2)cc1 + NC1CC1c1ccc(-c2cccc(O)c2)cc1 ?
Response: NO

Request: Hi, do you know how NS(=O)(=O)OCC1CC(n2ccc3c(NC4CCc5ccccc54)ncnc32)CC1O (stereo unspecified) + NC1CC1c1ccc(-c2cccc(O)c2)cc1 came out in this test?
Response: NO

Request: Each compound tested received a call. Report the one for O=C(C=Cc1cccc(S(=O)(=O)Nc2ccccc2)c1)NO + NC1CC1c1ccc(-c2cccc(O)c2)cc1 .
Response: NO

Request: Hi, sorry to bother you, what did the test record for NS(=O)(=O)OCC1CC(n2ccc3c(NC4CCc5ccccc54)ncnc32)CC1O (stereo unspecified) + NC1CCC(NC2CC2c2ccccc2)CC1 ?
Response: NO

Request: How did this test come out for O=C(C=Cc1cccc(S(=O)(=O)Nc2ccccc2)c1)NO + NC1CCC(NC2CC2c2ccccc2)CC1 ?
Response: NO

Request: Lab log entry: COc1cc(C2c3cc4c(cc3C(OC3OC5COC(C)OC5C(O)C3O)C3COC(=O)C23)OCO4)cc(OC)c1O (stereo unspecified) + NC1CCC(NC2CC2c2ccccc2)CC1 — outcome as called in the assay?
Response: NO

Request: What call does the record list for Nc1ncn(C2CC(O)C(CO)S2)c(=O)n1 (stereo unspecified) + NC1CCC(NC2CC2c2ccccc2)CC1 ?
Response: NO

Request: Answer briefly: the call reported for Nc1ccn(C2OC(CO)C(O)C2(F)F)c(=O)n1 (stereo unspecified) + NC1CC1c1ccc(-c2cccc(O)c2)cc1 in this assay.
Response: YES

Request: Each compound tested received a call. Report the one for CCN(c1cc(-c2ccc(CN3CCOCC3)cc2)cc(C(=O)NCc2c(C)cc(C)[nH]c2=O)c1C)C1CCOCC1 + NC1CCC(NC2CC2c2ccccc2)CC1 .
Response: NO

FYI, the data here is from PubChem BioAssay AID1918936.
